The reported measurements were obtained from the supplement of paper PMC10065799.

// reported phosphorylation enrichment per item
test system: Fer (mouse); experiment: phosphorylation enrichment, bacterial display (enrichment ratio); higher = better substrate or ligand; peptides without Tyr show the background;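 also: 11-residue human phosphosite peptides and single-mutation variants displayed on the E. coli surface, counted by deep sequencing, each peptide's frequency after selection divided by its frequency in the unselected input library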;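 also: frequency after pTyr selection over input frequency; kinase dosed for 20-30% of maximal phosphorylation in three min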
recorded_endpoint: phosphorylation enrichment

ordered_residues | reported_value
FTFDPYSEEEP [IL2RB_Y387_D391E_YF] | 0.549
IYHLSYIHNCE [PDE6B_Y227_L228I] | 1.67
ADFFDYGRGLS [KHDRBS3_Y304_H306R_YF] | 0.4
KLIMEYLPFGS [JAK2_Y931_YF] | 0.456
LSIDRYHAIVF [NPSR1_Y147_YF] | 0.444
VHVEVYDRPSP | 0.802
FLAVGYHKTHI [IDS_Y225_P228T] | 0.447
